Hi there, I'd appreciate the recorded composite z-score for every entry that follows.
# Tested target: Epidermal growth factor receptor (Homo sapiens) (UniProt P00533)
# Sequence (P00533 whole entry, looked up): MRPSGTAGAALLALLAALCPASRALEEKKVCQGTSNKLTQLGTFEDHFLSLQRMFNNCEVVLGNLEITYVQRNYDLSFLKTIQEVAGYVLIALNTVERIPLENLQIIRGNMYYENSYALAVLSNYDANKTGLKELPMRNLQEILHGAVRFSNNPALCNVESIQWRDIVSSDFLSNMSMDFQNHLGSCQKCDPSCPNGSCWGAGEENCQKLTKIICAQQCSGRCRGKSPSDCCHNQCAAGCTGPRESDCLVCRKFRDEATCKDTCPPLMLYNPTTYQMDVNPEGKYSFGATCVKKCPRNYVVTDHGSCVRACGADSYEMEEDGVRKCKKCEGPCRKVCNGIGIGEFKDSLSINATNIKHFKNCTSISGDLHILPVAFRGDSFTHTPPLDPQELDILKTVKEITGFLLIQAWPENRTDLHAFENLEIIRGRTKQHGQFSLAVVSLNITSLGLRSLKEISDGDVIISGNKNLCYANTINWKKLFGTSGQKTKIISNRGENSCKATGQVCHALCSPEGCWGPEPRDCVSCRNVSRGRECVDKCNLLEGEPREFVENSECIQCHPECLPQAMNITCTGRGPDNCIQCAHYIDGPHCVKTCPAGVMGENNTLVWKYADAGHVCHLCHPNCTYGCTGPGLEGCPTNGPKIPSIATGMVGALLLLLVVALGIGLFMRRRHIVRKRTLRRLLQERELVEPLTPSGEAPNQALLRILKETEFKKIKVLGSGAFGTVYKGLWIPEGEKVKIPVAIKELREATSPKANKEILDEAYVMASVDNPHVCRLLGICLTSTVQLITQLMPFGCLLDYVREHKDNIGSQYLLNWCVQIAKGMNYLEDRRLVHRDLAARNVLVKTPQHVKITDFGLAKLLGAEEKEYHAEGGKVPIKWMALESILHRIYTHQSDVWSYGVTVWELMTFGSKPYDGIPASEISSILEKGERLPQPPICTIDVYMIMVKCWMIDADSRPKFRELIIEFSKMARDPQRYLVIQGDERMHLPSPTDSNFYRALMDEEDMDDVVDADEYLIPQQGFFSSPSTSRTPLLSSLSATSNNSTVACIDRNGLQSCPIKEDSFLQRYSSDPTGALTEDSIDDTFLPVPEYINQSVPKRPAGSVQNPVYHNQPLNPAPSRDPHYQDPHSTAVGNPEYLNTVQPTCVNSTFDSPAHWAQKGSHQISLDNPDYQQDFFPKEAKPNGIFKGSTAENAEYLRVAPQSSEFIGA
# Procedure summary: EGFR binders on small-molecule microarrays, primary screen, biochemical, small-molecule microarray, 635 nm fluorescence (AID 1104);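 further: score merges 667 nm emission intensity with spot signal to noise over triplicate slides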
# Test context: EGFR binding, higher = more signal
API doc: respond with a numeric literal and nothing else, no unit.

Report composite z-score, nothing else, for this compound: `C=CC[C@@]1(C(=O)N(C)C)N=C(c2ccc(OCCCO)cc2)O[C@@H]1c1ccccc1`
-0.644

Specify reported composite z-score for the compound shown: `C=C(COC)C(=O)CC[C@@H](OC(C)=O)c1ccc(OCCO)cc1`
-0.484

Provide measured composite z-score value, entry: `O=C1N(Cc2ccccc2)c2ccccc2[C@H]2OC(c3ccc(OCCCO)cc3)=N[C@@]12Cc1ccccc1`
0.279

// Input: COc1ccc(C(O)C2C=CC3C(=O)N(C)C(=O)C3N2Nc2ccc([N+](=O)[O-])cc2[N+](=O)[O-])cc1OCc1ccccc1 (stereo not drawn) . Output its composite z-score only.
0.0333

Note composite z-score for the compound shown: `COCCOC(=O)N1C(=O)[C@@]2(c3cc(C#CC4=CCCCC4)ccc31)[C@H](C(=O)N1CCc3cc(OC)c(OC)cc3C1)[C@H]1C(=O)O[C@H](c3ccccc3)[C@H](c3ccccc3)N1[C@@H]2c1ccc(O)cc1`
1.32

# return recorded composite z-score for entry CC(c1ccccc1)C(O)C1C=CC2C(=O)N(c3ccccc3)C(=O)C2N1Nc1ccc(C#N)cc1 (stereo not drawn)
0.702

Given `CN1C(=O)[C@]2(CCS(=O)(=O)c3ccccc3)N=C(c3ccc(OCCCO)cc3)O[C@@H]2c2ccccc21` , respond with its composite z-score.
-0.0528

Identify measured composite z-score corresponding to `CN(C)CCCC[C@@H]1NC(=O)[C@@H]2C[C@H](C(=O)NCc3ccc(F)cc3)[C@H](c3ccc(O)cc3)N2C1=O`
0.176

Report measured composite z-score; entry is `CCOC(=O)C[C@H]1[C@H](OC(=O)c2ccc(C(=O)c3ccccc3)cc2)[C@@H](NC(=O)c2ccc3ccccc3c2)c2cc(OCCCO)ccc2N1C(=O)c1ccc2ccccc2n1`
0.598

Tell us which composite z-score value is on record for `COCCOC(=O)N1C(=O)[C@@]2(c3cc(C#Cc4ccc(OC)cc4)ccc31)[C@H](c1ccc(OCCO)cc1)N1[C@H](c3ccccc3)[C@H](c3ccccc3)OC(=O)[C@H]1[C@@H]2C(=O)N1CCCCCCC1`
0.719

Item `COC(=O)[C@@H]1N=C(c2ccc(OCCCO)cc2)O[C@@H]1c1ccccc1CN=[N+]=[N-]` : provide composite z-score
-0.428

Respond only with composite z-score recorded for `CO[C@H]1O[C@H](CO)[C@@H](OC(=O)Nc2ccc(C(F)(F)F)cc2)[C@H](OC(=O)Nc2ccccc2-c2ccccc2)[C@H]1OC(=O)Nc1ccccc1-c1ccccc1`
0.223

Using the record for `CCCC=C(CCC)[C@@H](NC(=O)c1ccco1)c1ccc(C(=O)OC)cc1` , state its measured composite z-score.
0.0415

State its composite z-score: `[N-]=[N+]=NCc1ccccc1C[C@]1(C(=O)O)COC(c2ccc(OCCCO)cc2)=N1`
-0.756

Please indicate composite z-score recorded for `COCCCN1C(=O)[C@@]2(Cc3ccccc31)c1ccccc1C(=O)N(Cc1ccccc1OC)[C@H]2c1ccc(CO)cc1`
-0.352

State its composite z-score: `COc1cccc(OC)c1C(=O)O[C@H]1[C@@H]2OC(=O)[C@H](Cc3cccc(Br)c3)C/C=C/C[C@@H](Cc3cccc(Br)c3)C(=O)O[C@H]2[C@@H](OC)O[C@@H]1CO`
-0.0525

Quote composite z-score reported for COC(=O)C1(CC(C)C)C=C2C(=C(C(C)C)C(=O)C2C)CN1 (stereo not drawn) please.
-0.961

Identify measured composite z-score associated with `COC(=O)[C@@]1(CCS(=O)(=O)c2ccccc2)N=C(c2ccc(OCCCO)cc2)O[C@H]1c1ccccc1N=[N+]=[N-]`
0.491

The values you see were collected from PubChem BioAssay.
